target: Protein translocase subunit SecA (Escherichia coli (strain K12)); experiment: Assay to Identify E. coli SecA ATPase Inhibitors; format: functional; set-up: scale not given: direction of the effect not stated beside the values; details: 30 µM
Potency and affinity values are given separately.
metricName: Percent Effect (%)
Entry rule: numbers only, all in %.

Below, 4 molecules whose answers are already recorded.
{"columns": ["molecule", "resultUnit", "observedMeasurement"],
 "data": [
  ["Cc1ccc(CN2CCCC23CCN(S(=O)(=O)c2ccccc2)C3)o1 (stereo not given)", "%", -3.52],
  ["O=C(COCc1ccccc1Cl)N1CCCC(n2cccn2)C1 (stereo not given)", "%", -4.85],
  ["CCC(=O)N1CCN(Cc2cc(-c3ccncc3)nn2C)CC1", "%", -5.35],
  ["Cc1ccc(N2CCCC(NCc3ccncc3)C2)nn1 (stereo not given)", "%", -2.1]
]}

API: the following record is the query input.
**Q:** Param readout = Percent Effect; param system = Protein translocase subunit SecA (Escherichia coli (strain K12)); param query = Cc1cnn(CCC(=O)N2CCCC(c3cc(C(N)=O)[nH]n3)C2)c1 (stereo not given) ; response: value
**A:** -1.91

* * *

target: Tyrosyl-tRNA synthetase, putative (Trypanosoma cruzi (strain CL Brener)) (UniProt Q4DSP6); experiment: Trypanosoma cruzi tyrosyl tRNA synthetase (TcYRS) _High Tyrosine SOP; type: functional; set-up: scale not given: in the data most compounds retested in dose-response had high values; settings: 30 µM
metricName: Percent Effect
Please make sure the unit comes right after the number.

{"columns": ["molecule", "observedMeasurement"],
 "data": [
  ["CC(C)NC(=O)C1CN(C(=O)c2ccc(F)cc2)CC12CCOCC2 (stereo not drawn)", "1.06%"],
  ["Cc1nc(N2CC[C@@H](NC(=O)c3cnccn3)[C@H](O)C2)c2ccsc2n1", "5.82%"]
]}

**Q:** Looking for the measured Percent Effect of CS(=O)(=O)NC1CCN(C(=O)NCCNc2ccccn2)CC1 , can you help?
**A:** -0.99%

* * *

target: Chromo domain-containing protein 1 (Saccharomyces cerevisiae (strain ATCC 204508 / S288c) (Baker's yeast)) (UniProt P32657); assay: ScCHD-1 Enzyme Inhibition Assay; type: functional; parameters: scale not given: in the data most compounds retested in dose-response had high values; details: 30 µM
Sequence (P32657 whole entry, the tested form may be a part): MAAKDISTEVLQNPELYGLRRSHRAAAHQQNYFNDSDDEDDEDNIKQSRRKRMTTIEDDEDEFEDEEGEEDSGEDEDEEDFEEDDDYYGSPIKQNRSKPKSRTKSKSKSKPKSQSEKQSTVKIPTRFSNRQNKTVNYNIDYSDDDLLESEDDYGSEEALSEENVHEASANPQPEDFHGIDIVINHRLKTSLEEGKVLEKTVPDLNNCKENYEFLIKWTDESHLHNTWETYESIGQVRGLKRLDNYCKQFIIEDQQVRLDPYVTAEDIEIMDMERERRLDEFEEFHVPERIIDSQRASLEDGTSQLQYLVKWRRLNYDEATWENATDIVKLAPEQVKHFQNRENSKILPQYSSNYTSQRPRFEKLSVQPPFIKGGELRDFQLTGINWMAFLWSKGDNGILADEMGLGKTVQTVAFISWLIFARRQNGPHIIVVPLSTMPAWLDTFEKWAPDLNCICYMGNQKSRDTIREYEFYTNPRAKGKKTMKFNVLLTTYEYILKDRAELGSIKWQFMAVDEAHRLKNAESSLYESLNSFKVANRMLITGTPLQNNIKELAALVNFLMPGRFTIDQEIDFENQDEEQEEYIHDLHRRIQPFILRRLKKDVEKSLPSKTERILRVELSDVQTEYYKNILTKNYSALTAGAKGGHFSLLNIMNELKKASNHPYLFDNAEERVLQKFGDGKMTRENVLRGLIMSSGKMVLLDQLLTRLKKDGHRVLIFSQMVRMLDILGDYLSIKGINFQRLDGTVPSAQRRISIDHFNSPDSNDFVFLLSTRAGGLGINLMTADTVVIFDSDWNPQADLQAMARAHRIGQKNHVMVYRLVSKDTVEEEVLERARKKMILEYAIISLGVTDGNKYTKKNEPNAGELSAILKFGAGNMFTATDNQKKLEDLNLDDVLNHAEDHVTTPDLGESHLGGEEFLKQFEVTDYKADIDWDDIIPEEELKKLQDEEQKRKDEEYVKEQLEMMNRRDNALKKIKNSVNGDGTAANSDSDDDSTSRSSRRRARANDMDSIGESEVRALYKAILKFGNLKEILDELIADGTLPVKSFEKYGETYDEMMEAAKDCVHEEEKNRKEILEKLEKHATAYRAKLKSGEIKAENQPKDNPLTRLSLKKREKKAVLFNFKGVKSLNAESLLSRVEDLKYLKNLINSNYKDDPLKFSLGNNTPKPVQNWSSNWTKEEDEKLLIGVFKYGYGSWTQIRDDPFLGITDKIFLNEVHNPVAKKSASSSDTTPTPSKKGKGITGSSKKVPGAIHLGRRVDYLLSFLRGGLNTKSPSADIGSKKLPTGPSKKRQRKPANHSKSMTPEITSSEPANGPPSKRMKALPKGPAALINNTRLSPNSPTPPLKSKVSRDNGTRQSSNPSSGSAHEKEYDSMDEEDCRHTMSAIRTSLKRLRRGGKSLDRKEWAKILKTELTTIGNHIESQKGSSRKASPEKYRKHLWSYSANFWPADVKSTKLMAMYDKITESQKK
metricName: Percent Effect (%)
Entry rule: numbers only, all in %.

Below, 3 compounds whose answers are already recorded.
{"columns": ["compound", "Percent Effect / %"],
 "data": [
  ["c1ccc(Cn2ccnc2CN2CCOC(Cn3cccn3)C2)cc1 (stereo not drawn)", -16.1],
  ["COCC1Cn2nnc(-c3cnn(C)c3)c2CN1Cc1ccc(C)s1 (stereo not drawn)", -4.26],
  ["CN(Cc1nnc(C2CC2)n1C)C(=O)c1ccnc(OC2CCC2)c1", -2.68]
]}

API: the following record is the query input.
**Q:** Looking for the measured Percent Effect of CCN(Cc1ccc2c(c1)OCO2)Cc1nc(C)no1 , can you help?
**A:** -4.89

* * *

Listed below: Percent Effect values for each entry.
organism: Homo sapiens; test: To identify inhibition of the IFN signalling (Jak-Stat) pathway via expression of an eGFP reporter gene under the control of an IFN-stimulated response element (ISRE) containing MxA promoter.; type: functional; parameters: scale not given: direction of the effect not stated beside the values; details: 30 µM
Entry rule: numbers only, all in %.

Below, 4 compounds whose answers are already recorded.
{"columns": ["compound", "Percent Effect (%)"],
 "data": [
  ["CN(C)C(=O)CN1CCCCC1c1nc(N)ncc1-c1ccccc1 (centres undefined)", -0.722],
  ["CN(C)Cc1ccnc(C2CCCN2Cc2ccncc2)n1 (centres undefined)", 7.82],
  ["O=C(NCC1CC1)[C@H]1C[C@@H]2CCN(Cc3nccs3)C[C@@H]2O1", 17.8],
  ["O=C(NC1CC1)c1cc(NC(=O)N2CCCC(O)C2)ccc1Cl (centres undefined)", -0.927]
]}

**Q:** Looking for the measured Percent Effect of COc1ccc(OCc2nc(C(=O)N3CC(O)C3)co2)cc1 , can you help?
**A:** 2.54

**Q:** Looking for the measured Percent Effect of Cc1cc(CN2CCN(C(=O)Nc3cccnc3)CC2)on1 , can you help?
**A:** -11.1

**Q:** Looking for the measured Percent Effect of COCCc1noc(CN2CCc3nn(C(C)C)c(=O)cc3C2)n1 , can you help?
**A:** 6.48

**Q:** Looking for the measured Percent Effect of CC(C)CCOCCNC(=O)Nc1cc(C(F)(F)F)c[nH]c1=O , can you help?
**A:** 6.69

**Q:** Looking for the measured Percent Effect of CCNC(=O)N1CCC2(C1)c1ccccc1S(=O)(=O)N2CCC(C)C (centres undefined) , can you help?
**A:** -14.8

**Q:** Looking for the measured Percent Effect of COc1ncccc1NC(=O)C1CC(=O)N(Cc2ccccn2)C1 (centres undefined) , can you help?
**A:** -2.21

**Q:** Looking for the measured Percent Effect of O=C(c1cnccn1)N1CCOC2(CCN(Cc3ccsc3)CC2)C1 , can you help?
**A:** -18.7

**Q:** Looking for the measured Percent Effect of CCn1ccnc1CN1CCN(CC(=O)NC(C)(C#N)C2CC2)CC1 (centres undefined) , can you help?
**A:** 16.7

**Q:** Looking for the measured Percent Effect of O=C(c1ccsc1)N1CC(C(=O)N2CCOCC2)C2(CCOCC2)C1 (centres undefined) , can you help?
**A:** 7.29

* * *

Target: Tyrosyl-tRNA synthetase, putative (Trypanosoma cruzi (strain CL Brener)) (UniProt Q4DSP6)
Sequence (whole entry): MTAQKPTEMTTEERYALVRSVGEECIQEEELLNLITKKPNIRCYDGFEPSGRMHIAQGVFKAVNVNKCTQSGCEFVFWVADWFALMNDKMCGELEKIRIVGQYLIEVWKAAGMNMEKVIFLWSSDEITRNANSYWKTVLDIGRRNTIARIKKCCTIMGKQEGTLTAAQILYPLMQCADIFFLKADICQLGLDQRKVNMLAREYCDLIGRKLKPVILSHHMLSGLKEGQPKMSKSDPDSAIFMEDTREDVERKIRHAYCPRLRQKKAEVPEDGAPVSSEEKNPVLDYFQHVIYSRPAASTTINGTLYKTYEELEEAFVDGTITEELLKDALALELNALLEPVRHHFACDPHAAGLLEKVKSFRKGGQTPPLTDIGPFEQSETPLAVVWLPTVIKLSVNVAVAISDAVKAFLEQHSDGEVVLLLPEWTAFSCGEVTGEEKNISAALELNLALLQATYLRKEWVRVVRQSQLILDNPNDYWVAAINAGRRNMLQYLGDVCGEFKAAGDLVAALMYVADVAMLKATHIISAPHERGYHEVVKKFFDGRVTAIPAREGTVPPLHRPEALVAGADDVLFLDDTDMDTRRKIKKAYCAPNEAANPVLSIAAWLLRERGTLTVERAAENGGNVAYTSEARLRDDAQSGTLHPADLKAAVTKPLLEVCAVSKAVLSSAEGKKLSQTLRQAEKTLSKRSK
Assay: Trypanosoma cruzi tyrosyl tRNA synthetase (TcYRS) _High Tyrosine SOP
Type: functional
Parameters: scale not given: direction of the effect not stated beside the values
Conditions: 30 µM
metricName: Percent Effect (%)
Entry rule: numbers only, all in %.

Below, 5 molecules whose answers are already recorded.
{"columns": ["molecule", "resultUnit", "observedMeasurement"],
 "data": [
  ["CC(C)c1nc(C2CCCN(C(=O)CCn3ccnc3)C2)no1 (centres undefined)", "%", 6.4],
  ["CS(=O)(=O)c1ccc(CNCC2CCN(CCO)CC2)cc1", "%", -2.15],
  ["O=C(N1CCCO1)[C@@]12CCO[C@@H]1CCN(C1CCCCC1)C2", "%", -105],
  ["COCC(O)CNC(=O)c1coc(COc2ccc3sc(C)nc3c2)n1 (centres undefined)", "%", 5.38],
  ["Cc1ncccc1OC1(C(=O)NCCCN2CCOCC2)CCNCC1", "%", 6.88]
]}

**Q:** Param readout = Percent Effect; param system = Tyrosyl-tRNA synthetase, putative (Trypanosoma cruzi (strain CL Brener)) (UniProt Q4DSP6); param query = COc1ccc(C[C@H]2CN(c3nnc(C)s3)CC[C@@H]2OC)cc1 ; response: value
**A:** -34.4

**Q:** Param readout = Percent Effect; param system = Tyrosyl-tRNA synthetase, putative (Trypanosoma cruzi (strain CL Brener)) (UniProt Q4DSP6); param query = Cn1nc(CNC(=O)NCc2ccc(Cl)cc2)c2c1CCOC2 ; response: value
**A:** 0

**Q:** Param readout = Percent Effect; param system = Tyrosyl-tRNA synthetase, putative (Trypanosoma cruzi (strain CL Brener)) (UniProt Q4DSP6); param query = Cc1cc(=O)n2ncnc2n1CC(O)c1cc(F)ccc1F (centres undefined) ; response: value
**A:** 5.32

* * *

biological target: Tyrosyl-tRNA synthetase, putative (Trypanosoma cruzi (strain CL Brener)); experiment: Trypanosoma cruzi tyrosyl tRNA synthetase (TcYRS) SOP; assay type: functional; set-up: scale not given: direction of the effect not stated beside the values; settings: 30 µM
metricName: Percent Effect (%)
Entry rule: numbers only, all in %.

Below, 8 molecules whose answers are already recorded.
{"columns": ["molecule", "Percent Effect (%)"],
 "data": [
  ["CSc1ncc(C(=O)N2C[C@H]3CC[C@@H]2CN(Cc2ccccc2)C3)cn1", 10],
  ["CC(NC(=O)COc1ccc(F)cc1)c1nnc2n1CCCCC2 (centres undefined)", 18.5],
  ["CCc1ccc(S(=O)(=O)Nc2c(C)cccc2C(=O)O)s1", 6.17],
  ["COCCN1CCC2(CC1)CC(COC)N(c1ncccn1)C2 (centres undefined)", 3.7],
  ["Cc1nc(N2CC[C@@H](NC(=O)c3cnccn3)[C@H](O)C2)c2ccsc2n1", 19.5],
  ["CC(=O)N1CCN(C)CC(COCc2ccccc2)C1 (centres undefined)", 6.49],
  ["Cc1nc(C)n(CC2CCCN(CCc3ccncc3)C2)n1 (centres undefined)", 17.5],
  ["Cc1ccccc1CS(=O)(=O)CC(=O)NCc1ccccc1F", 13]
]}

**Q:** Looking for the measured Percent Effect of CCS(=O)(=O)N1CCC2(CCC2NC(=O)c2ccn(C)c2)CC1 (centres undefined) , can you help?
**A:** 15.4
